- System: CCRF-CEM leukemia
- assay_overview: NCI tumour cell line growth inhibition, 48 h
Assignment: determine reported TGI for the given compounds.

Here COc1ccc(C(=O)C(C(=O)CC(=O)Nc2cccc(C(F)(F)F)c2)c2ccc(OC)cc2)cc1 (centres undefined) was tested on CCRF-CEM leukemia, and its TGI came to > 100 µM

Here `C=C(CN1CCN(c2cccc(C(F)(F)F)n2)CC1)c1ccc(C(=O)Nc2ccccc2N)cc1` was tested on CCRF-CEM leukemia, and its TGI came to > 100 µM

Here `Cc1ccc(/C(O)=C/c2nc3c(nc2NC24CC5CC(CC(C5)C2)C4)c(=O)oc2ccccc23)cc1` was tested on CCRF-CEM leukemia, and its TGI came to > 100 µM

Here CC1C/C(=C\c2ccc(OC(=O)C(C)(C)C)cc2)C(=O)/C(=C/c2ccc(OC(=O)C(C)(C)C)cc2)C1 (centres undefined) was tested on CCRF-CEM leukemia, and its TGI came to 6.25 µM
